# key: entry, value: growth inhibition
Method summary: NCI Yeast Anticancer Drug Screen. Data for the cln2 rad14 strain (AID 165);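 further: 0% = growth equal to vehicle treated cultures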
Measurement parameters: S. cerevisiae cln2 rad14 strain, at 50.0 µM, stronger effect = higher value
The panel holds about 79,000 compounds, 15% with a hit somewhere; the sample as a whole holds those more often.
Number only, in %; omit the unit.

O=C(CC(c1ccccc1)N1CCCCC1)OC(c1ccccc1)c1ccc(Br)cc1 (configuration not stated) = 7.95
CCC(C(=O)O)C(C)(C)C (configuration not stated) = -4.9
CC(C)(C)C1=CC(=C(c2ccc(-c3c4nc(c(-c5ccc(C(=C6C=C(C(C)(C)C)C(=O)C(C(C)(C)C)=C6)c6cc(C(C)(C)C)c(O)c(C(C)(C)C)c6)cc5)c5ccc([nH]5)c(-c5ccc(C(=C6C=C(C(C)(C)C)C(=O)C(C(C)(C)C)=C6)c6cc(C(C)(C)C)c(O)c(C(C)(C)C)c6)cc5)c5nc(c(-c6ccc(C(=C7C=C(C(C)(C)C)C(=O)C(C(C)(C)C)=C7)c7cc(C(C)(C)C)c(O)c(C(C)(C)C)c7)cc6)c6ccc3[nH]6)C=C5)C=C4)cc2)c2cc(C(C)(C)C)c(O)c(C(C)(C)C)c2)C=C(C(C)(C)C)C1=O = -38.6
C=C(C)C#CCN(CCO)C(C)C = 9.2
O=C(O)c1cc(=O)[nH]c2ccccc12 = -0.95

# input molecule: O=C(Nc1ccc(Cl)cc1)Nc1nnc2nc(C3(c4nc5nnc(NC(=O)Nc6ccc(Cl)cc6)n5[nH]c4=O)Cc4ccccc4C3=O)c(=O)[nH]n12 ; wanted: its growth inhibition
12.9

Lookup CSc1nc2c(c(=O)n1C)N=C(c1ccc([N+](=O)[O-])cc1)CC(c1ccccc1)N2 (configuration not stated)
10.7

Lookup COc1ccc2ncc(COC(=O)Nc3ccccc3)c(COC(=O)Nc3ccccc3)c2c1
5.65

Lookup CCCCCCCOc1ccc(/C=C\c2cc[n+](CCCCCCCC[n+]3ccc(/C=C\c4ccc(OCCCCCCC)cc4)cc3)cc2)cc1
22.7

Lookup COc1cc2cccc(NC(=O)c3cc(OC)c(OC)c(OC)c3Br)c2cc1OC
19.6

---

Method summary: NCI Yeast Anticancer Drug Screen. Data for the mlh1 rad18 strain (AID 175)
Measurement parameters: S. cerevisiae mlh1 rad18 strain growth inhibition; at 50.0 µM; stronger effect = higher value
About 79,000 compounds went through this panel and 15% of them were active in at least one assay; those are over-represented in the sample as a whole.
# key: entry, value: growth inhibition
Number only, in %; omit the unit.

Previously resolved entries follow.
N#Cc1ccc(CCc2ccccc2)cc1 = -2.05
COc1ccc(/C=N\N2CN(C(CC(N)=O)C(=O)O)C(O)(CCl)N=C2N)cc1OC (centres undefined) = -0.1
Cc1ccc(S(=O)(=O)OCC2CCC(COS(=O)(=O)c3ccc(C)cc3)O2)cc1 (centres undefined) = -6.9
O=C(Nc1ccc(Cl)cc1)NS(=O)(=O)c1coc2cc(F)ccc2c1=O = 11.4
CC(=O)NCCCCNS(=O)(=O)c1ccc(C)cc1 = 5.1
Cc1ccc(-c2cc(C(=O)NN)c(C#N)c(=O)[nH]2)cc1 = 26.1
O=C(/C=N\O)Nc1ccccc1O = -1.9
CCC(=O)C(CC)c1ccccc1 (centres undefined) = 4.55
CNC(=S)N/N=C/c1nc2ccccc2c(=O)n1-c1ccc(Cl)cc1 = 10.2
CCC(c1ccc(CN(C)C)c(O)c1)C(CC)c1ccc(CN(C)C)c(O)c1 (centres undefined) = 2.75

# input compound: Cc1nc2c(=O)[nH]c(N)nc2[nH]c1=O ; wanted: its growth inhibition
2.3

Lookup CC(=O)/C(N=Nc1ccccc1SCCC#N)=C(\C)O
1.5

---

Method summary: NCI Yeast Anticancer Drug Screen. Data for the mec2-1 strain (AID 157)
Measurement parameters: S. cerevisiae mec2-1 strain, at 50.0 µM, stronger effect = higher value
Compounds without any hit were thinned out: in the full panel of roughly 79,000, 15% have a hit. Active and inactive are the calls of the source. Rule as the data show it: active = growth inhibition above about 70%; inactive = the rest.
Assay readout: growth inhibition

CSc1c2c(c(C)c3c1[nH]c1ccccc13)C=NCC2 = 13.8% (inactive)

# input compound: Fc1ccc2nncc(/C=C/c3ccccn3)c2c1 ; wanted: its growth inhibition
-3.55% (inactive)

Lookup CCc1cccc(Nc2ccccc2C(=O)O)c1
25.2% (inactive)

---

# key: entry, value: growth inhibition
Method summary: NCI Yeast Anticancer Drug Screen. Data for the mec2-1 strain (AID 157)
Measurement parameters: S. cerevisiae mec2-1 strain, at 50.0 µM, stronger effect = higher value
The panel holds about 79,000 compounds, 15% with a hit somewhere; the sample as a whole holds those more often.
Number only, in %; omit the unit.

Previously resolved entries follow.
CC(C)(C)C1CCC(O)(CSc2ccccc2)CC1 (stereo not given) = 1.45
Cc1ccc([N+](=O)[O-])cc1NC(=O)COc1ccc(Cl)cc1Cl = 0.55
Cc1ccc(C(N)=Nc2ccccc2)cc1 = 0
COc1cc(-c2c(C#N)c(OC)[nH]c(=O)c2C#N)cc(OC)c1OC = 13.3
O=[N+]([O-])c1ccc(-c2csc3nc(-c4ccccc4)nn23)cc1 = -31.2
CCCCCCCCCCCCCCCC[N+](C)(C)CCN=[N+]=[N-] = 99.7
COC(=O)c1cccc2c1ccc1ccc3ccccc3c12 = -19.4
Cc1cn(C2CC(O)C(CO)O2)c(=O)nc1NC1CCCCCCCCCCC1 (stereo not given) = 5.7
COc1ccc(C(=O)CC2=Nc3nnc(CCCCCCCc4nnc5n4C(=O)C(CC(=O)c4ccc(OC)cc4)=N5)n3C2=O)cc1 = -1.9
Cc1ccccc1NC(=O)CC(=O)n1nc(-c2ccccc2)c(N=Nc2ccc([N+](=O)[O-])cc2)c1-c1ccccc1 = 10.4

Turning now to a further record.
# input compound: CCOC(=O)c1nc2ccccc2nc1NCc1ccc(OC)cc1 ; wanted: its growth inhibition
-6.45

---

Method summary: NCI Yeast Anticancer Drug Screen. Data for the sgs1 mgt1 strain (AID 161);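 further: 0% = growth of cultures given vehicle only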
Measurement parameters: S. cerevisiae sgs1 mgt1 strain, at 50.0 µM, stronger effect = higher value
The panel holds about 79,000 compounds, 15% with a hit somewhere; the sample as a whole holds those more often.
growth inhibition below 10% gives Condition not met; growth inhibition at or above it gives Condition met.

# count of solved cases: 5
CC(=O)Oc1nnc(-c2ccccc2)c(-c2ccccc2)n1 = Condition met
Cc1ccnc(NCc2ccccn2)c1 = Condition met
CCOC(=O)CC(=O)Nc1cc(C)cc(C)n1 = Condition not met
Cc1nc2c(ncn2C2OC(CO)C(O)C2O)c(=O)[nH]1 (stereo unspecified) = Condition not met
Cc1c2ccccc2c(CN2CC(O)CC2C(=O)O)c2ccccc12 (stereo unspecified) = Condition met

Given C/C(=C\CNc1ncnc2c1ncn2CCC(=O)OC(C)(C)C)CO , state whether its growth inhibition is at least 10%.
Condition not met

Lookup CO[C@@H]1C[C@H]2[C@@H]3CC[C@H]([C@H](C)COC(C)=O)[C@@]3(C)CC[C@@H]2[C@@]2(C)CC[C@H]3C[C@]312
Condition not met

Lookup Nc1ccc2c(c1)Cc1c-2cc(Br)c(N)c1Br
Condition not met

Lookup CC(C)(C)c1ccc(OS(=O)(=O)c2ccc(Cl)c(Cl)c2)cc1
Condition not met

Lookup Nc1cc2c(cn1)[nH]c1ccccc12
Condition not met

---

Method summary: NCI Yeast Anticancer Drug Screen. Data for the sgs1 mgt1 strain (AID 161);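 further: 0% = growth of cultures given vehicle only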
Measurement parameters: S. cerevisiae sgs1 mgt1 strain, at 50.0 µM, stronger effect = higher value
Compounds without any hit were thinned out: in the full panel of roughly 79,000, 15% have a hit. Activity calls are given as the source filed them. Rule as the data show it: active = growth inhibition above about 70%; inactive = the rest.
Assay readout: growth inhibition

Previously resolved entries follow.
CCC(C(CC(=O)c1ccccc1)c1ccccc1)[N+](=O)[O-] (centres undefined) = 0.6% (inactive)
CC(CO)CCC(=O)C(C)C1CC2(C)CCC3C(CCC4CC(O)CCC43C)C2C12SCCS2 (centres undefined) = -7.8% (inactive)
CCCCC(=O)c1ccc2ccccc2c1O = 3.9% (inactive)
CCN(CC)C(=S)N/N=C/c1ccccn1 = 91% (active)

# input compound: COC1=C(C(c2cc(OC)c(OC)c(OC)c2)c2cc3c(cc2OC)OCO3)C(=O)OC1 (centres undefined) ; wanted: its growth inhibition
-2.9% (inactive)

Lookup CC(=O)OCN(C)N=Nc1ccc([N+](=O)[O-])cc1
25.8% (inactive)

Lookup CCCCCC(N)=O
4.25% (inactive)

Lookup COc1ccccc1Nc1n[nH]c(=S)s1
58.5% (inactive)

Lookup CC1CN=C(N(Cc2ccccc2)C(=O)Nc2ccc(Cl)c(Cl)c2)S1 (centres undefined)
-0.35% (inactive)

Lookup C(=Nc1ccc2ccccc2c1)c1cccs1
12.6% (inactive)

Lookup COC(=O)CCN1CCN(CCO)CC1C (centres undefined)
-26.6% (inactive)

Lookup O=[N+]([O-])c1cccc(-c2cc3ccccn3c2)c1
13.8% (inactive)

Lookup CCN(CC)CCN(C(=O)c1ccc(F)cc1)c1ccccc1N
-23.6% (inactive)

Lookup CN(C)c1ccc(/C=N/N(Cc2ccccc2)c2ccccc2)cc1
3.2% (inactive)

Lookup O=C(/C=C/c1ccccc1)c1ccc(O)cc1O
14.8% (inactive)

Lookup O=c1oc2ccccc2c(O)c1C(c1ccc2c(c1)OCO2)N1CCCC1 (centres undefined)
19.9% (inactive)

Lookup COc1cc2c(c(OC)c1OC)-c1cccc(=O)cc1C(NC(C)=O)CC2 (centres undefined)
-3.35% (inactive)

Lookup Cc1cccc2c1C(=O)C(C1OC(=O)c3ccccc31)C2 (centres undefined)
1.5% (inactive)

Lookup COC(=O)c1ccc2c(c1)CC1(C2)Cc2cc3c(cc2C1=O)CCC3 (centres undefined)
-0.5% (inactive)
